# MEASUREMENT TARGET: T1, Fc tagged mouse TNFR1 (Sino Biological) (mouse, UniProt P25118 22-212, limits assumed)
# T1 construct: Bought reagent; also called mTNFR1; mTNFR1-Fc; not shown: Fc tag of the bought protein
# T1 sequence (looked up): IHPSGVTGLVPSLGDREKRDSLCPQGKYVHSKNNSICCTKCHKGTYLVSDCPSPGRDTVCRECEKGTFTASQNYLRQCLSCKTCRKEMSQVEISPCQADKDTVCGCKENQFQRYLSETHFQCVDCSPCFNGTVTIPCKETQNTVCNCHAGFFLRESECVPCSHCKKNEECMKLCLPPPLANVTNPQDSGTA
# TEST: SPR, Biacore single cycle kinetics, stability study, before freezing (t=0)
pKd: −log10 of the molar value.
ATTRIBUTE MEASURED: pKd

- BINDER: "TNF mutein B2 (ligand, Human TNF mutein, TASYSG at positions 84-89; not shown: C-terminal FLAG tag and His6 tag from vector pANT65) VRSSSRTPSDKPVAHVVANPQAEGQLQWLNRRANALLANGVELRDNQLVVPSEGLYLIYSQVLFKGQGCPSTHVLLTHTISRITASYSGKVNLLSAIKSPCQRETPEGAEAKPWYEPIYLGGVFQLEKGDRLSAEINRPDYLDFAESGQVYFGIIAL"
  READOUT NUMBER: 10.20
- BINDER: "TNF mutein B5 (ligand, Human TNF mutein, TGTYVD at positions 84-89; not shown: C-terminal FLAG tag and His6 tag from vector pANT65) VHSSSRTPSDKPVAHVVANPQAEGQLQWLNRRANALLANGVELRDNQLVVPSEGLYLIYSQVLFKGQGCPSTHVLLTHTISRITGTYVDKVNLLSAIKSPCQRETPEGAEAKPWYEPIYLGGVFQLEKGDRLSAEINRPDYLDFAESGQVYFGIIAL"
  READOUT NUMBER: 10.11
- BINDER: "TNF mutein G4 (ligand, Human TNF mutein, SSTYNP at positions 84-89; also called mutTNF G4; mutTNF; not shown: C-terminal FLAG tag and His6 tag from vector pANT65) VRSSSRTPSDKPVAHVVANPQAEGQLQWLNRRANALLANGVELRDNQLVVPSEGLYLIYSQVLFKGQGCPSTHVLLTHTISRISSTYNPKVNLLSAIKSPCQRETPEGAEAKPWYEPIYLGGVFQLEKGDRLSAEINRPDYLDFAESGQVYFGIIAL"
  READOUT NUMBER: 10.15
